System: Plasmodium cynomolgi exoerythrocytic-stage small (hypnozoites) and large (liver stage schizonts) parasites
Assay: P. cynomolgi liver assay in primary hepatocytes
Conditions: Plasmodium cynomolgi, Hepatocyte, read-out: % inhibition normalized to untreated control, Large
Below, each entry is listed alongside its reported inhibition at 0.1 µM.

compound: COc1cc(NC(C)CCCN)c2ncccc2c1 (stereo not drawn) [Primaquine, reference compound]
inhibition at 0.1 µM [%]: 1
--
compound: COc1ccccc1CNC(=O)CCn1c(=O)[nH]c2ccsc2c1=O
inhibition at 0.1 µM [%]: 3
--
compound: COc1cccc(C=Cc2nc(=O)c3ccccc3o2)c1OC
inhibition at 0.1 µM [%]: 22
--
compound: COc1ccccc1CNC(=O)CCn1c(=O)[nH]c2ccccc2c1=O
inhibition at 0.1 µM [%]: 6
--
compound: Cc1ccc(N2C3c4ccccc4N(S(=O)(=O)c4ccc(C)cc4)C2c2ccccc2N3S(=O)(=O)c2ccc(C)cc2)cc1
inhibition at 0.1 µM [%]: 17
--
compound: Brc1ccc(Nc2nc3ccccc3nc2Nc2ccc(Br)cc2)cc1
inhibition at 0.1 µM [%]: 23
--
compound: O=C(Nc1ccc(-c2nc3cc(NC(=O)c4ccc(Cl)cc4)ccc3[nH]2)cc1)c1ccc(Cl)cc1
inhibition at 0.1 µM [%]: 34
--
compound: COc1ccc(C2=C(c3ccc(OC)cc3)C3(c4ccccc4)C(=O)C2(c2ccccc2)C2C(=O)N(c4ccc(C)cc4)C(=O)C23)cc1 (stereo not drawn)
inhibition at 0.1 µM [%]: 7
--
compound: O=C(Nc1cccc(C(F)(F)F)c1)c1cc(Cl)ccc1O
inhibition at 0.1 µM [%]: 6

----------
System: Plasmodium berghei (Pb-Luc) exoerythrocytic-stage parasites
Conditions: first series; concentration 0.00152416; fraction of control
Below, each entry is listed alongside its reported normalized signal at concentration 0.00152416.
metric: normalized signal at concentration 0.00152416

structure: O=S(=O)(c1cccs1)N1CCCCN2[C@H](CO)[C@H](c3ccc(/C=C/c4ccccc4)cc3)[C@H]2C1
recorded.number: 1.07
//
structure: COc1ccc(NC(=O)N(C)C[C@H]2Oc3ccc(NC(=O)CCN4CCOCC4)cc3C(=O)N([C@H](C)CO)C[C@@H]2C)cc1
recorded.number: 0.86
//
structure: CN(C)C(=O)c1ccc(-c2ccc([C@@H]3[C@H]4CN(C(=O)CC5CC5)CC(=O)N4[C@H]3CO)cc2)cc1
recorded.number: 0.98

----------
Test system: HepG2-A16-CD81EGFP cells
Assay: cells
Settings: Homo sapiens, HepG2, read-out: % inhibition
Below, each entry is listed alongside its reported inhibition at 50 µM.

compound: COc1ccc(C2C(C(=O)Nc3cccc(OC)c3)c3ccccc3C(=O)N2C2CCCCC2)cc1 (stereo not drawn)
inhibition at 50 µM, %: 28

compound: Cc1cc(Nc2ccc3ccccc3c2)n2ncnc2n1
inhibition at 50 µM, %: 88.4

compound: COc1ccc(OC)c(C2C3=C(CC(C)(C)CC3=O)N(c3ccc(Cl)c(Cl)c3)C3=C2C(=O)CC(C)(C)C3)c1
inhibition at 50 µM, %: -4.26

compound: Cc1cccc(Nc2nc(N)c3ccccc3n2)c1
inhibition at 50 µM, %: 91.6

compound: CCOc1cc2c(cc1OCC)C(c1cc(C)c(O)c(C)c1)NCC2 (stereo not drawn)
inhibition at 50 µM, %: 23

compound: CCOc1c(Br)cc(C2C(C(=O)OC)=CN(C)C=C2C(=O)OC)cc1OC
inhibition at 50 µM, %: 31.2

compound: CC1CN(C(=O)c2sc3ccccc3c2Cl)CC(C)O1 (stereo not drawn)
inhibition at 50 µM, %: 25

compound: CCCCNCC(O)(c1ccc(Cl)cc1)c1ccc(Cl)cc1
inhibition at 50 µM, %: 95.9

compound: CCOc1ccc2c(c1)CN(Cc1ccc(Cl)cc1)CO2
inhibition at 50 µM, %: 95.5
